TARGET_SYSTEM: T1, cynomolgus folate receptor alpha, recombinant (cynomolgus, UniProt A0A2K5U044 25-233)
T1 construct: also called cyFOLR1; cynomolgus FRα
T1 sequence (A0A2K5U044 entry or part of it): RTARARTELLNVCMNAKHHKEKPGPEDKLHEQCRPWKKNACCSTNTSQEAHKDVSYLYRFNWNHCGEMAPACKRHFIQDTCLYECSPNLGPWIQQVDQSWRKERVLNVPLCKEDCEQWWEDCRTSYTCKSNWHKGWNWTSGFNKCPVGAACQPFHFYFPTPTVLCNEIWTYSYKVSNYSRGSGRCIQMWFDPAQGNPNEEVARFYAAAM
MEASUREMENT_PROTOCOL: BLI, purified VHH
MEASURED_PROPERTY: koff (s⁻¹)

(a) P01500056: P01500001(I33L, D72P, N73G)-FLAG3-HIS6 (VHH, also called P0150056) VHH: EVQLVESGGGLVQPGGSLRLSCAASGSGFSGMLMGWYRQAPGKQRELVATVTSHGTTNYADSVKGRFTISRPGAKNTVYLQMNSLRPEDTAVYYCNAHFPGIYWGKGTLVTVSS
(b) P01500051: P01500001(D72E, N73G)-FLAG3-HIS6 (VHH, also called P0150051) VHH: EVQLVESGGGLVQPGGSLRLSCAASGSGFSGMIMGWYRQAPGKQRELVATVTSHGTTNYADSVKGRFTISREGAKNTVYLQMNSLRPEDTAVYYCNAHFPGIYWGKGTLVTVSS
Select one: a or b . Criterion: greater recorded koff. # answer = label of selected item b
(b: 0.00078 s⁻¹, a: 0.00034 s⁻¹)
